# key: entry, value: MIC
Test system: VRE 1004
Assay type: cell-based, Enterococcus faecalis
Bridge positions count the residues as written; N and C are the ends. Square brackets hold non-standard residues; d marks the D form. Peptide text beside a SMILES is read from it. ξ: configuration not given here. dNMeF = CN[C@H](Cc1ccccc1)C(=O)O; Ile(3ξ) = CCC(C)[C@H](N)C(=O)O
Output should be the measured figure followed by the unit it is expressed in.

Example results:
CCC(C)[C@@H]1NC(=O)[C@H](CCCNC(=N)N)NC(=O)[C@H](NC(=O)[C@H](CO)NC(=O)[C@@H](NC(=O)[C@H](NC(=O)[C@@H](CCC(N)=O)NC(=O)[C@H](CO)NC(=O)[C@@H](NC(=O)[C@@H](Cc2ccccc2)NC)[C@@H](C)CC)[C@H](C)CC)[C@@H](C)CC)[C@H](C)OC(=O)[C@H]([C@@H](C)CC)NC1=O (stereo partly drawn) [Compound 34, Arg9-Ile10-teixobactin] (H-[dNMeF]IS[dQ][dI]IS[dT]R[Ile(3ξ)]I; ester 8-C): 1 µg/mL
CC[C@@H](C)[C@@H](NC(=O)[C@@H](CCCNC(=N)N)NC(=O)[C@H](CCCNC(=N)N)NC(=O)[C@@H](NC(=O)[C@@H](Cc1ccccc1)NC)[C@@H](C)CC)C(=O)N[C@H](C(=O)N[C@@H](CO)C(=O)N[C@H]1C(=O)N[C@@H](C)C(=O)N[C@@H](CC(C)C)C(=O)N[C@@H]([C@@H](C)CC)C(=O)O[C@H]1C)[C@@H](C)CC [Compound 28, Arg3-D-Arg4-Leu10-teixobactin] (H-[dNMeF]IR[dR][dI]IS[dT]ALI; ester 8-C): 0.5 µg/mL

Shift focus to the following entry.
Form field MIC, entry CCC(C)[C@@H]1NC(=O)[C@H](C)NC(=O)[C@H](NC(=O)[C@H](CO)NC(=O)[C@@H](NC(=O)[C@H](NC(=O)[C@@H](CCC(N)=O)NC(=O)[C@H](CCCNC(=N)N)NC(=O)[C@@H](NC(=O)[C@@H](Cc2ccccc2)NC)[C@@H](C)CC)[C@H](C)CC)[C@@H](C)CC)[C@H](C)OC(=O)[C@H]([C@@H](C)CC)NC1=O (stereo partly drawn) [Compound 32, Arg3-Ile10-teixobactin] (H-[dNMeF]IR[dQ][dI]IS[dT]A[Ile(3ξ)]I; ester 8-C) : 1 µg/mL
